The following compounds are shown together with reported IC50 values.
assay: Ability to displace [3H]LY-341,495 binding to Group II Metabotropic glutamate receptor from rat forebrain
Response body: numeric value in nM, unit text excluded.

- N[C@@]1(C(=O)O)CS[C@H]2[C@H](C(=O)O)[C@H]21 (racemic) [LY-389795]: 26.1
- N[C@@]1(C(=O)O)CO[C@H]2[C@H](C(=O)O)[C@H]21 (racemic) [LY-379268]: 29
- N[C@@]1(C(=O)O)CS[C@H]2[C@H](C(=O)O)[C@H]21 (stereo in doubt; (-)-10) [LY-389795]: 8.4
- N[C@@]1(C(=O)O)CC[C@H]2[C@H](C(=O)O)[C@H]21: 254
- N[C@@]1(C(=O)O)CO[C@H]2[C@H](C(=O)O)[C@H]21 (stereo in doubt; (+)-9) [LY-379268]: 5040
- N[C@@]1(C(=O)O)CS[C@H]2[C@H](C(=O)O)[C@H]21 (stereo in doubt; (+)-10) [LY-389795]: 792

Now consider the entry below.
Q. Look up IC50 for this compound: N[C@@]1(C(=O)O)CO[C@H]2[C@H](C(=O)O)[C@H]21 (stereo in doubt; (-)-9) [LY-379268]
A. 15

====

target: Metabotropic glutamate receptor 3 (Homo sapiens, UniProt Q14832); test: Ability to displace [3H]LY-341,495 from recombinant human Metabotropic glutamate receptor 3 expressed in RGT cells.
Sequence (Q14832 whole entry): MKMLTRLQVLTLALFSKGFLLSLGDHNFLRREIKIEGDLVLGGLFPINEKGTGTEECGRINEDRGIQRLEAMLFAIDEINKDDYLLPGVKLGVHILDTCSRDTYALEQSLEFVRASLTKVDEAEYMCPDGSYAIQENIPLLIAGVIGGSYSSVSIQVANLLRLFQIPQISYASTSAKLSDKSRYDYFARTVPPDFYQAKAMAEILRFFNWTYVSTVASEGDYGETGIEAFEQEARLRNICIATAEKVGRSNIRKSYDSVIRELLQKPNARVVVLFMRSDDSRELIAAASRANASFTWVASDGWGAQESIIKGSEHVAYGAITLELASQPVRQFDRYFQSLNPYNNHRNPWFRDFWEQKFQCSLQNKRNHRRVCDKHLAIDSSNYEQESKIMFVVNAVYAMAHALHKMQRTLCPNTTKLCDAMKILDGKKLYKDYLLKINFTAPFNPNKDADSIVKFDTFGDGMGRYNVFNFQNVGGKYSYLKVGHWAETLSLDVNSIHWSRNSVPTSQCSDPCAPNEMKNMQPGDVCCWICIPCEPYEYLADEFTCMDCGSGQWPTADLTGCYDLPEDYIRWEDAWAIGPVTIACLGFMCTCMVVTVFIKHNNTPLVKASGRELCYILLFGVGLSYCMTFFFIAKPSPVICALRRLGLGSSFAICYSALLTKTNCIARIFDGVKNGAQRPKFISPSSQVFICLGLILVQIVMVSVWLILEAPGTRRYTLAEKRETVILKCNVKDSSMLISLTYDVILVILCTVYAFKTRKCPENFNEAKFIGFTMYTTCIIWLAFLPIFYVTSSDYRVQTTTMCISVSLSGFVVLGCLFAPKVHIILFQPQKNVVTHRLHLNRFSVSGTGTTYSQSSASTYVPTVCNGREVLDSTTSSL
Labelling field: enter t if recorded Ki is less than 90 nM. Enter f if it equals or exceeds that cut-off.

Q. Quick check: does N[C@@]1(C(=O)O)CS[C@H]2[C@H](C(=O)O)[C@H]21 (stereo in doubt; (-)-10) [LY-389795] have Ki under 90 nM?
A. t

Q. Quick check: does N[C@@]1(C(=O)O)CO[C@H]2[C@H](C(=O)O)[C@H]21 (racemic) [LY-379268] have Ki under 90 nM?
A. t

Q. Quick check: does N[C@@]1(C(=O)O)CC[C@H]2[C@H](C(=O)O)[C@H]21 [EGLUMETAD] have Ki under 90 nM?
A. f

====

The following compounds are shown together with reported EC50 values.
biological target: Metabotropic glutamate receptor 5 (Homo sapiens); assay: […] in RGT cells expressing recombinant human mGluR5a; format: functional, cell-based

// below: answered compounds
• N[C@@]1(C(=O)O)CO[C@H]2[C@H](C(=O)O)[C@H]21 (stereo in doubt; (-)-9) = > 100 µM
• N[C@@]1(C(=O)O)CS[C@H]2[C@H](C(=O)O)[C@H]21 (stereo in doubt; (-)-10) = > 100 µM

Now consider the entry below.
Q. Look up EC50 for this compound: `N[C@@]1(C(=O)O)CC[C@H]2[C@H](C(=O)O)[C@H]21`
A. > 100 µM

====

biological target: Metabotropic glutamate receptor 6 (Homo sapiens); test: Inhibition of forskolin stimulated cAMP production in RGT cells expressing recombinant human mGluR6
Sequence (O15303 whole entry): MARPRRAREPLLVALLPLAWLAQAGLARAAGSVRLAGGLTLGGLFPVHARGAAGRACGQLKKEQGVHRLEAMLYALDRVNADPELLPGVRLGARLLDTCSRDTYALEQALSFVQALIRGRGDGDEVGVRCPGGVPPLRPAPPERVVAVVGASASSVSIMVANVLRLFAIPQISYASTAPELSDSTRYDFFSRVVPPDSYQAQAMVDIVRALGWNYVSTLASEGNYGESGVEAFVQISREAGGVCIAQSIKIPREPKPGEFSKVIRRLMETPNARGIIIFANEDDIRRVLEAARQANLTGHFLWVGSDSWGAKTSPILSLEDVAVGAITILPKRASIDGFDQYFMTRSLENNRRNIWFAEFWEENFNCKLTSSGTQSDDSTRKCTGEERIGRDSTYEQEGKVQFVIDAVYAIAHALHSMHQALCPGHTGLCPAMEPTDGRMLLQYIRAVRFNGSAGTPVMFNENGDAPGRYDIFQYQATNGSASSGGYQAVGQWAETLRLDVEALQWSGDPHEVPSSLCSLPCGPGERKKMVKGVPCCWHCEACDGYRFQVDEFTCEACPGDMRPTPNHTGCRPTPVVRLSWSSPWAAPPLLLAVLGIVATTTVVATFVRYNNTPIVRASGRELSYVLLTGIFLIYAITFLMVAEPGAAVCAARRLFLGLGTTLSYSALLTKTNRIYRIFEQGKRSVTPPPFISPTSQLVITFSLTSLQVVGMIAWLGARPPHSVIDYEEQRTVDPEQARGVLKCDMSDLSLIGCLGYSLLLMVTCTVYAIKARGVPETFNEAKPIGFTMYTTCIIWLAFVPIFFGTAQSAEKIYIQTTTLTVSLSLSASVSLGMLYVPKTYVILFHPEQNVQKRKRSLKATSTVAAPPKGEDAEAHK
readout_kind: EC50 (nM)
Response body: numeric value in nM, unit text excluded.

// below: answered molecules
- N[C@@]1(C(=O)O)CS[C@H]2[C@H](C(=O)O)[C@H]21 (stereo in doubt; (-)-10) [LY-389795]: 2430
- N[C@@]1(C(=O)O)CC[C@H]2[C@H](C(=O)O)[C@H]21 [EGLUMETAD]: 2990

Q. Look up EC50 for this molecule: N[C@@]1(C(=O)O)CO[C@H]2[C@H](C(=O)O)[C@H]21 (stereo in doubt; (-)-9) [LY-379268]
A. 401

====

target: UniProtKB Q13255; assay: […] in RGT cells expressing recombinant human mGluR1a
Sequence (Q13255 whole entry): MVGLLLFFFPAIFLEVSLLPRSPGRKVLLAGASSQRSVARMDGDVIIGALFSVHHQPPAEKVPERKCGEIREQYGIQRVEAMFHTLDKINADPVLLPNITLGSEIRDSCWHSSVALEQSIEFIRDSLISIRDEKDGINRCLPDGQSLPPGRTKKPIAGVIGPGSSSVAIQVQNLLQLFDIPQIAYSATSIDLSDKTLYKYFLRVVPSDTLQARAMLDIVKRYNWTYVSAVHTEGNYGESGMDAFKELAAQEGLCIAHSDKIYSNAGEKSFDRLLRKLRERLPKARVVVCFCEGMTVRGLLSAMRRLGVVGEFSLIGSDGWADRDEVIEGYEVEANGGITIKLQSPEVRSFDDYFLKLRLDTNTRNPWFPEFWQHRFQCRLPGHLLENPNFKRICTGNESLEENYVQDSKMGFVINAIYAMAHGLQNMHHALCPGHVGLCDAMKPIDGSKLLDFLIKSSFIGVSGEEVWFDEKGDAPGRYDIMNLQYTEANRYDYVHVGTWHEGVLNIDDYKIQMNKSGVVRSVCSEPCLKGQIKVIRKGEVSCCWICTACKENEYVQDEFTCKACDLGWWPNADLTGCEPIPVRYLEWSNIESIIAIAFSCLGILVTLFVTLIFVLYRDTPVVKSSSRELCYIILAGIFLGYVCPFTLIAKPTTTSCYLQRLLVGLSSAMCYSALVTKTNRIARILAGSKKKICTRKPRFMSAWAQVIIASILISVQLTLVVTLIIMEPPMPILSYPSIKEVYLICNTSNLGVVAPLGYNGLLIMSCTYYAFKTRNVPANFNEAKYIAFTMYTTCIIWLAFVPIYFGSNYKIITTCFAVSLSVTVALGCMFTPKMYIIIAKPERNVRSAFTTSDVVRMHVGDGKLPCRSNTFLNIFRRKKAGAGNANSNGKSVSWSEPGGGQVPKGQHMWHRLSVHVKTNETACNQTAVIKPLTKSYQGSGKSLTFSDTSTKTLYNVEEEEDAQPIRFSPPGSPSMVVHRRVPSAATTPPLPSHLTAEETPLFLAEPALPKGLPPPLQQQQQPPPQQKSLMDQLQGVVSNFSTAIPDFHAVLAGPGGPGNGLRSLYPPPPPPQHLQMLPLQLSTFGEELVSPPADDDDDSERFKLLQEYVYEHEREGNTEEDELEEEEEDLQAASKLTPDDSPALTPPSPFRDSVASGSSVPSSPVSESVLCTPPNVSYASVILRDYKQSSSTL
readout_kind: EC50

// below: answered molecules
- N[C@@]1(C(=O)O)CC[C@H]2[C@H](C(=O)O)[C@H]21: > 100 µM
- N[C@@]1(C(=O)O)CO[C@H]2[C@H](C(=O)O)[C@H]21 (stereo in doubt; (-)-9): > 100 µM

Now consider the entry below.
Q. Look up EC50 for this molecule: N[C@@]1(C(=O)O)CS[C@H]2[C@H](C(=O)O)[C@H]21 (stereo in doubt; (-)-10)
A. > 100 µM

====

target: Glutamate receptor ionotropic, AMPA (Rattus norvegicus, UniProt P19490+P19491+P19492+P19493); assay: Binding affinity against Ionotropic glutamate receptor AMPA using [3H]AMPA as radioligand.; assay type: protein-complex assay
readout_kind: IC50

Q. Look up IC50 for this compound: `N[C@@]1(C(=O)O)CC[C@H]2[C@H](C(=O)O)[C@H]21`
A. > 100 µM

====

target: Glutamate receptor ionotropic, AMPA (Rattus norvegicus, UniProt P19490+P19491+P19492+P19493); test: Ability to displace [3H]AMPA binding to Ionotropic glutamate receptor AMPA from rat forebrain
pIC50: −log10 of the molar value.
The following compounds are shown together with reported pIC50 values.

- N[C@@]1(C(=O)O)CS[C@H]2[C@H](C(=O)O)[C@H]21 (racemic): < 4.00

Now consider the entry below.
Q. Look up pIC50 for this compound: N[C@@]1(C(=O)O)CO[C@H]2[C@H](C(=O)O)[C@H]21 (stereo in doubt; (-)-9)
A. < 4.00

====

target: Metabotropic glutamate receptor 8 (Homo sapiens); assay: Inhibition of forskolin stimulated cAMP production in RGT cells expressing recombinant human mGluR8; type: functional, cell-based
Sequence (O00222 whole entry): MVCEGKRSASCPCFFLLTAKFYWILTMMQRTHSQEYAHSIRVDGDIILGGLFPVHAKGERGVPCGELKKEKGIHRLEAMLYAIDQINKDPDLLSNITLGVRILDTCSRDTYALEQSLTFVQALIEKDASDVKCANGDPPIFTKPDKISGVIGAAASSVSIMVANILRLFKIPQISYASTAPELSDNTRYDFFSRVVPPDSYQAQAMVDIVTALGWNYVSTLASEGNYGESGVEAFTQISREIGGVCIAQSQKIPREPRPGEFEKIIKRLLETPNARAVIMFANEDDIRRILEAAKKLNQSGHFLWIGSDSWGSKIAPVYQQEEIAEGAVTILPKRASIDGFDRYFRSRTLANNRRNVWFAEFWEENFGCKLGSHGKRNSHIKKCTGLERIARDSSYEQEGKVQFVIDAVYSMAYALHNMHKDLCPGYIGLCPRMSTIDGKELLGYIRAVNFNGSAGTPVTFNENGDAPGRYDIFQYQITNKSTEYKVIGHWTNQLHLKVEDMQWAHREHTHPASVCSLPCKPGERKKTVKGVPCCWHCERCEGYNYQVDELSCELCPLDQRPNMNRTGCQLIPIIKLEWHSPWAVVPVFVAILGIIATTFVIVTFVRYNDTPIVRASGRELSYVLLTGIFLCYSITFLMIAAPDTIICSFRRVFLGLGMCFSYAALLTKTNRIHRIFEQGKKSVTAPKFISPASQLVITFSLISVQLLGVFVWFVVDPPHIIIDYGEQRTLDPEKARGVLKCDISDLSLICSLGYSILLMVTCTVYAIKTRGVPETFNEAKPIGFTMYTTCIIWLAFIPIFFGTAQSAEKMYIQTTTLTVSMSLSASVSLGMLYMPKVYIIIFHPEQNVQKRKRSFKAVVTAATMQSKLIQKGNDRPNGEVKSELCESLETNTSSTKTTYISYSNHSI
readout_kind: EC50 (µM)
Response body: numeric value in µM, unit text excluded.

// below: answered compounds
* N[C@@]1(C(=O)O)CO[C@H]2[C@H](C(=O)O)[C@H]21 (stereo in doubt; (-)-9) | 1.69
* N[C@@]1(C(=O)O)CS[C@H]2[C@H](C(=O)O)[C@H]21 (stereo in doubt; (-)-10) | 7.34

Q. Which EC50 is reported with Metabotropic glutamate receptor 8 (Homo sapiens) for this entry: `N[C@@]1(C(=O)O)CC[C@H]2[C@H](C(=O)O)[C@H]21` ?
A. 11.5

====

target: Glutamate receptor ionotropic, kainate; assay: Ability to displace [3H]-KA binding to Ionotropic glutamate receptor kainate from rat forebrain
pIC50: −log10 of the molar value.
The following molecules are shown together with reported pIC50 values.

// below: answered molecules
• N[C@@]1(C(=O)O)CS[C@H]2[C@H](C(=O)O)[C@H]21 (racemic) [LY-389795] = < 4.00
• N[C@@]1(C(=O)O)CO[C@H]2[C@H](C(=O)O)[C@H]21 (stereo in doubt; (-)-9) [LY-379268] = < 4.00

Q. Look up pIC50 for this molecule: N[C@@]1(C(=O)O)CC[C@H]2[C@H](C(=O)O)[C@H]21 [EGLUMETAD]
A. < 4.00

====

target: Metabotropic glutamate receptor 3 (Homo sapiens, UniProt Q14832); experiment: Inhibition of forskolin stimulated cAMP production in RGT cells expressing recombinant human Metabotropic glutamate receptor 3
readout_kind: pEC50
// field semantics: pEC50 = negative decimal log of concentration (mol/L)

// below: answered compounds
* N[C@@]1(C(=O)O)CO[C@H]2[C@H](C(=O)O)[C@H]21 (stereo in doubt; (-)-9) | 8.34
* N[C@@]1(C(=O)O)CC[C@H]2[C@H](C(=O)O)[C@H]21 | 7.42

Now consider the entry below.
Q. Look up pEC50 for this compound: N[C@@]1(C(=O)O)CS[C@H]2[C@H](C(=O)O)[C@H]21 (stereo in doubt; (-)-10)
A. 8.12

====

assay: Ability to displace [3H]CGP-39653 binding to N-methyl-D-aspartate glutamate receptor from rat forebrain
The following compounds are shown together with reported IC50 values.

// below: answered compounds
• N[C@@]1(C(=O)O)CO[C@H]2[C@H](C(=O)O)[C@H]21 (stereo in doubt; (-)-9) [LY-379268] = > 100 µM
• N[C@@]1(C(=O)O)CS[C@H]2[C@H](C(=O)O)[C@H]21 (racemic) [LY-389795] = > 100 µM

Now consider the entry below.
Q. Look up IC50 for this compound: N[C@@]1(C(=O)O)CC[C@H]2[C@H](C(=O)O)[C@H]21 [EGLUMETAD]
A. > 100 µM

====

biological target: Metabotropic glutamate receptor 2 (Homo sapiens); assay: Ability to displace [3H]LY-341,495 from recombinant human Metabotropic glutamate receptor 2 subtypes expressed in RGT cells.
Sequence (Q14416 whole entry): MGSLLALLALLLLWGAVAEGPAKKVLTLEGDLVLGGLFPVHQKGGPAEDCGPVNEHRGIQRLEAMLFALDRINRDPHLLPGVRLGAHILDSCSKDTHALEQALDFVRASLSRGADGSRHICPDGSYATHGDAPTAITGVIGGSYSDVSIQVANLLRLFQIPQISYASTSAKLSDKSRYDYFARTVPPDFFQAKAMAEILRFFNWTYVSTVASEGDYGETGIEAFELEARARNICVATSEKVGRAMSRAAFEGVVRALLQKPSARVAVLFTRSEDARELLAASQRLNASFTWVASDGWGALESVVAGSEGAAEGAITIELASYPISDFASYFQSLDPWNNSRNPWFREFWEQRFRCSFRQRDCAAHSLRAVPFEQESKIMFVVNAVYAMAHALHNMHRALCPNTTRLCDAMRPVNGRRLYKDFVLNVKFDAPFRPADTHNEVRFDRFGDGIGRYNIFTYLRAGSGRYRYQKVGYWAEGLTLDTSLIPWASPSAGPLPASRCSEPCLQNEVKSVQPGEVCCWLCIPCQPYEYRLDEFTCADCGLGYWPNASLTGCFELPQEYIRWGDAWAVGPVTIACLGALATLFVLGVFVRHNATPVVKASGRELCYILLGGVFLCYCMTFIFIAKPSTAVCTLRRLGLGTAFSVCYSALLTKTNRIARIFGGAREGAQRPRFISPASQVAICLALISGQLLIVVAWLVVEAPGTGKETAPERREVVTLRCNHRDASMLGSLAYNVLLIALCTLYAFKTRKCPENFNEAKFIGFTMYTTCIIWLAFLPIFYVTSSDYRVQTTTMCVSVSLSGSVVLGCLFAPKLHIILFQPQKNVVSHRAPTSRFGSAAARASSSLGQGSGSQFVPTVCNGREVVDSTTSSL
pKi: −log10 of the molar value.
The threshold is inclusive: pKi of exactly 7 counts as Fulfilled; values below receive Not fulfilled.

Use these answered entries as a reference point.
- N[C@@]1(C(=O)O)CS[C@H]2[C@H](C(=O)O)[C@H]21 (stereo in doubt; (+)-10) [LY-389795]: Not fulfilled
- N[C@@]1(C(=O)O)CO[C@H]2[C@H](C(=O)O)[C@H]21 (stereo in doubt; (+)-9) [LY-379268]: Not fulfilled
- N[C@@]1(C(=O)O)CS[C@H]2[C@H](C(=O)O)[C@H]21 (stereo in doubt; (-)-10) [LY-389795]: Fulfilled
- N[C@@]1(C(=O)O)CO[C@H]2[C@H](C(=O)O)[C@H]21 (stereo in doubt; (-)-9) [LY-379268]: Fulfilled

Turning now to a further compound:
Q. Hello, I need to know if N[C@@]1(C(=O)O)CO[C@H]2[C@H](C(=O)O)[C@H]21 (racemic) [LY-379268] has measured pKi not below 7. Thanks!
A. Fulfilled
